# Tested on: ABL2
# PROTOCOL CONDITIONS: concentration: 1 μM, replicates: in singlicate; n = 1;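 note: KINOMEscan kinase panel screen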
One threshold, 20%, splits the recorded %Inh values: lower ones are class 1, equal or higher ones are class 0.

input: Could you please tell me whether %Inh recorded for CCn1c(-c2nonc2N)nc2c(C#CC(C)(C)O)nc(OC[C@H](N)c3ccccc3)cc21 is less than 20%?
output: class 1

input: Please do the same for CN(c1ccc(NC(=O)Nc2cc(C(F)(F)F)ccc2F)cc1)c1ccnc(Nc2ccc(S(N)(=O)=O)cc2)n1 as well.
output: class 0

input: Now consider COc1cccc(C(=O)Nc2cccc(Oc3ccc4nc(NC(=O)C5CC5)cn4n3)c2)c1 and answer again.
output: class 0

input: Then CCc1ccc(-c2ccc3c(c2)-c2c(cnn2C)S(=O)(=O)N3C)cc1 ?
output: class 1

input: Lookup Cc1ccc(C(=O)N2CC[C@@H](O)C2)cc1-n1c(C)cc(OCc2ccc(F)cc2F)c(Br)c1=O
output: class 0

input: Also, CC(=O)Nc1nc2cnc(Nc3cc(NC(=O)c4cccc(C5(C#N)CC5)c4Cl)ccc3C)nc2s1 please.
output: class 0

input: Okay, and COc1ccc(-c2coc3ccc(-c4nnc(SCc5ccc(OC)c(C(F)(F)F)c5)o4)cc23)cc1 ?
output: class 0

input: Also, O=C(Nc1cccc(-c2nn3ccccc3c2-c2ccnc(Nc3cccc(C(F)(F)F)c3)n2)c1)c1c(F)cccc1F please.
output: class 0

----------
# System: ICK
# PROTOCOL CONDITIONS: concentration: 1 μM, replicates: in singlicate; n = 1
REPORTED METRIC: %Inh
Include the unit after the number when you answer.

input: Need %Inh, item COC(=O)Nc1nc2ccc(Oc3ccc(NC(=O)Nc4cc(C(F)(F)F)ccc4F)cc3)cc2n1C.Cl [GW692089]
output: 0%

input: Proceed to COc1cccc(NC(=O)NC2CCN(c3ccnc(Nc4cc(OC)c(OC)c(OC)c4)n3)C2)c1 (stereo not shown) [GSK1379763]
output: 18%

input: What would you report for Cc1ccc(C)c(NC(=O)NC2CCN(c3ccnc(Nc4ccc(F)cc4)n3)C2)c1 (stereo not shown) [GSK1379720] ?
output: 0%

input: Another compound: O=C(NC1CCN(c2ccnc(Nc3ccc(F)cc3)n2)C1)c1cc2ccccc2s1 (stereo not shown) [GSK1379716]
output: 0%

----------
# Tested on: MAP3K1
# PROTOCOL CONDITIONS: concentration: 1 μM, replicates: in singlicate; n = 1
I'd be grateful if you could share measured %Inh for these entries.
Expressed in %, but write only the number.

input: Entry under review: Cc1cccc(NC(=O)Nc2ccc(Oc3ncnc4ccn(C)c34)cc2)c1 . Reported %Inh?
output: 0

input: Then this compound: COc1cccc(C(=O)Nc2cccc(Oc3ccc4nc(NC(=O)C5CC5)cn4n3)c2)c1
output: 9

input: Okay, and Cc1ccc(C(=O)Nc2ccc(Nc3ccnc4cc(-c5nccs5)ccc34)cc2O)cc1.Cl [GW494702] ?
output: 14

input: Next: COc1cc(Nc2ncc3c(C)nc(-c4cc5ccccc5[nH]4)n3n2)cc(OC)c1OC [GW869516]
output: 0

input: Another compound to look at: Nc1ncc(-c2ccc3nccc(-c4ccncc4)c3c2)cc1S(=O)(=O)N1CCOCC1 [GSK1627798]
output: 7

input: Input O=C(Nc1cccc(-c2nn3ncccc3c2-c2ccnc(Nc3ccccc3)n2)c1)c1c(F)cccc1F [GSK198271]
output: 3

input: Okay, and Cc1ccc(F)c(C(=O)Nc2cccc(-c3nn4ccccc4c3-c3ccnc(Nc4cccc(F)c4)n3)c2)c1F [GSK361061] ?
output: 31

input: Moving on to the next compound: CN1CCN(CCCNc2nccc(-c3c(-c4ccc(F)cc4)nn4cc(C(F)(F)F)ccc34)n2)CC1 [GW621581]
output: 4

----------
# Test system: SRPK1
# PROTOCOL CONDITIONS: concentration: 1 μM, replicates: in singlicate; n = 1
# met = %Inh below 20% (exclusive); not met = %Inh at/above 20%

input: Would you kindly verify if %Inh of O=C(Nc1cccc(-c2nn3ccccc3c2-c2ccnc(Nc3cccc(F)c3)n2)c1)c1c(F)ccc(F)c1Cl is strictly less than 20%?
output: not met

input: Queued: Cc1ccc(F)c(C(=O)Nc2cccc(-c3nn4ccccc4c3-c3ccnc(Nc4cccc(F)c4)n3)c2)c1F
output: met

input: Moving on to the next compound: C[C@@H](Oc1cc(-n2cnc3cc(-c4ccnc(NCCS(C)(=O)=O)c4)ccc32)sc1C(N)=O)c1ccccc1Cl
output: not met

input: Continue with CSc1cccc2c(-c3ccncn3)c(-c3ccc(F)cc3)nn12
output: met

input: Then this compound: Clc1ccc(-c2nn3ncccc3c2-c2ccnc(Nc3ccc4c(c3)OCCO4)n2)cc1
output: met

input: Repeat for the following compound: O=C(Nc1n[nH]c2cc(-c3ccoc3)ccc12)C1CC1
output: not met

input: Please do the same for COc1cc2c(cc1OCCN1CCNCC1)ncc1c3ccc(C#N)cc3[nH]c21 as well.
output: not met

input: Please give the result for CCc1ccc(-c2ccc3c(c2)-c2c(cnn2C)S(=O)(=O)N3C)cc1 too.
output: met

input: Moving on to the next compound: CN(C)S(=O)(=O)c1cc(-c2ccc3nccc(-c4cccc(S(N)(=O)=O)c4)c3c2)cnc1N
output: met

input: And then COc1ccc(-c2coc3ccc(-c4nnc(SCc5ccc(OC)c(C(F)(F)F)c5)o4)cc23)cc1 , what is it?
output: met

input: And the next one, c1ccc(-c2n[nH]cc2Nc2ccnc3ccccc23)nc1 ?
output: not met

input: Another: Cl.NC(=O)c1cccc(Nc2nccc(Nc3ccc(Oc4c(Cl)cccc4Cl)c(Cl)c3)n2)c1
output: not met

input: Also check CC(=O)N1CCN(c2ccc(Nc3nccc(-c4sc(C(C)C)nc4-c4cccc(NS(=O)(=O)c5cccc(Cl)c5)c4)n3)cn2)CC1
output: not met

input: Moving on to Cl.Cl.NCC(NC(=O)c1cc(-c2ccccc2)c(-c2ccnc3[nH]ccc23)s1)c1ccccc1 (stereo not shown)
output: not met

input: Then COc1cc(Nc2nccc(-c3c(-c4cccc(NC(=O)c5c(F)cccc5F)c4)nn4ncccc34)n2)cc(OC)c1OC ?
output: not met

input: Same lookup for CNC(=O)c1ccccc1Nc1nc(Nc2ccc(N3CCOCC3)cc2)ncc1Cl.Cl , please.
output: not met

----------
# Tested on: MLK1
# Construct: gene MAP3K9
# PROTOCOL CONDITIONS: concentration: 1 μM, replicates: in singlicate; n = 1
REPORTED METRIC: %Inh (%)
Entry rule: numbers only, all in %.

input: Record request: %Inh value, item CNC(=O)c1ccccc1Nc1nc(Nc2ccc(N3CCOCC3)cc2)ncc1Cl.Cl
output: 97.6

input: Also, COCCOCCOc1cc2ncc3c4ccc(C#N)cc4[nH]c3c2cc1OC please.
output: 22

input: Now consider Fc1ccc(-c2ncn(C3CCNCC3)c2-c2ccnc(Oc3ccc(-c4ccccc4)cc3)n2)cc1 and answer again.
output: 52

input: O=C(NC1CCN(c2ccnc(Nc3ccc(F)cc3)n2)C1)c1cc2ccccc2s1 (stereo not drawn) ?
output: 0

input: What about COc1ccc(CNC(=O)NC2CCN(c3ccnc(Nc4ccc(F)cc4)n3)CC2)cc1 ?
output: 0

input: How about COc1cc(Nc2nccc(-c3c(-c4cccc(NC(=O)c5c(F)cccc5F)c4)nn4ncccc34)n2)cc(OC)c1OC ?
output: 9

input: Can you handle Cc1ccc(C)c(NC(=O)NC2CCN(c3ccnc(Nc4ccc(F)cc4)n3)C2)c1 (stereo not drawn) next?
output: 0

input: Next record, please: CCn1c(-c2nonc2N)nc2c(C#CC(C)(C)O)ncc(OCCCCN)c21.O=C(O)C(F)(F)F.O=C(O)C(F)(F)F
output: 0

input: Can you check Cc1ccc(S(=O)(=O)Nc2ccc(Nc3nccc(Nc4cccc5[nH]ncc45)n3)cc2)cc1 next?
output: 0

input: What would you report for CC(=O)N1CCN(c2ccc(Nc3nccc(-c4sc(C(C)C)nc4-c4cccc(NS(=O)(=O)c5cccc(Cl)c5)c4)n3)cn2)CC1 ?
output: 33

input: Query Cl.Cl.NCC(NC(=O)c1cc(-c2ccccc2)c(-c2ccnc3[nH]ccc23)s1)c1ccccc1 (stereo not drawn) next
output: 0

input: Then CSc1cccc2c(-c3ccncn3)c(-c3ccc(F)cc3)nn12 ?
output: 14

input: Try this compound too: Cc1ccc(C(=O)N2CC[C@@H](O)C2)cc1-n1c(C)cc(OCc2ccc(F)cc2F)c(Br)c1=O
output: 0

input: Input CN(C)Cc1ccc(-c2ccc3c(Nc4ccc(Oc5ccccn5)cc4)ccnc3c2)o1
output: 0

input: Also need COC(=O)Nc1nc2cc(Oc3ccc(NC(=O)Nc4cc(C(F)(F)F)ccc4F)cn3)ccc2[nH]1.Cl.Cl , thanks.
output: 12

input: Now the compound COc1cccc(-c2ccc3c(NC(=O)C4CC4)n[nH]c3n2)c1
output: 19

input: Also check CCS(=O)(=O)c1ccc(OC)c(Nc2nccc(-c3c(-c4cccc(NC(=O)c5c(F)cccc5F)c4)nn4ncccc34)n2)c1
output: 0

input: Same for CCn1c(-c2nonc2N)nc2c(C#CC(C)(C)O)nc(OC[C@H](N)c3ccccc3)cc21
output: 0

input: Would you kindly repeat that for COC(=O)Nc1nc2ccc(Oc3ccc(NC(=O)Nc4cc(C(F)(F)F)ccc4F)cc3)cc2n1C.Cl ?
output: 0

input: Field entry: CCCCc1nn2ncccc2c1-c1ccnc(Nc2ccc(N3CCN(C)CC3)cc2)n1
output: 0

input: Consider next the compound O=C(Nc1cccc(-c2nn3ccccc3c2-c2ccnc(Nc3cccc(C(F)(F)F)c3)n2)c1)c1c(F)cccc1F in the same way.
output: 0

input: Then NCCCC(NC(=O)c1cc(Br)c(-c2ccnc3[nH]ccc23)s1)c1ccccc1.O=C(O)C(F)(F)F.O=C(O)C(F)(F)F (stereo not drawn) ?
output: 0

input: Same again, this time with COc1ccc(Nc2nccc(N3CCC(NC(=O)Nc4cccc(OC)c4)C3)n2)cc1 (stereo not drawn)
output: 0

input: Again, but for COc1ccc(Nc2nccc(NCCNC(=O)c3cc4ccccc4s3)n2)cc1
output: 0

input: What do we get for Nc1ncnc2c1nc(-c1ccccc1)n2-c1ccccc1 ?
output: 16

input: // next record Oc1cc(Nc2ccnc3cc(I)ccc23)ccc1F
output: 0

input: Try this compound next: Cl.Cl.NCC(NCc1ccc(-c2ccnc3[nH]ccc23)s1)c1ccccc1 (stereo not drawn)
output: 0

All figures here come from paper PMC5540273.
